Subject of test: UniProtKB Q96SW2
Sequence (Q96SW2 whole entry): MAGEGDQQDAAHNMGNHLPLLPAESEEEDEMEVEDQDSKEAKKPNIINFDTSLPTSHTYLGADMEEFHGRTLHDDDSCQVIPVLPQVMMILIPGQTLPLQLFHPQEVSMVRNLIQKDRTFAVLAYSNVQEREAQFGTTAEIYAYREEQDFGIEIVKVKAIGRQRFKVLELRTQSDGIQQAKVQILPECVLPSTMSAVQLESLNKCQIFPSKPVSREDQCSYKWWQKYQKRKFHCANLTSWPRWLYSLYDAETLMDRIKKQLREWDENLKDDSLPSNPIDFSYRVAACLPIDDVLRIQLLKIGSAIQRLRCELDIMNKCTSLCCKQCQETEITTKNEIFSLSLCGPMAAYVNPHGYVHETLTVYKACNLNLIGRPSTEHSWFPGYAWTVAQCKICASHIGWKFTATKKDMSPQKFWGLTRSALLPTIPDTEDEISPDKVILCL
Items are presented alongside their recorded IC50.
Metric: IC50

>>> result("O=C1CCC(N2Cc3c(ccc4c3OCC43CCN(Cc4ccc(F)c(F)c4)CC3)C2=O)C(=O)N1 (stereo not shown)")
"100 to 1000 nM"
>>> result("Cn1ccc(-c2cccc(CN3CCC4(CC3)COc3c4ccc4c3CN(C3CCC(=O)NC3=O)C4=O)c2)n1 (stereo not shown)")
"100 to 1000 nM"
>>> result("O=C1CCC(N2Cc3c(ccc4c3OCC43CCN(Cc4cccc5cn[nH]c45)CC3)C2=O)C(=O)N1 (stereo not shown)")
"10 to 100 nM"
>>> result("O=C1CCC(N2Cc3c(ccc4c3OCC43CCN(Cc4ccc(C(F)F)cc4)CC3)C2=O)C(=O)N1 (stereo not shown)")
"10 to 100 nM"
>>> result("CCn1cc(-c2cccc(CN3CCC4(CC3)COc3c4ccc4c3CN(C3CCC(=O)NC3=O)C4=O)c2)cn1 (stereo not shown)")
"10 to 100 nM"
>>> result("Cn1ccc2ccc(CN3CCC4(CC3)COc3c4ccc4c3CN(C3CCC(=O)NC3=O)C4=O)cc21 (stereo not shown)")
"100 to 1000 nM"
>>> result("O=C1CCC(N2Cc3c(ccc4c3OCC43CCN(Cc4cccc(-c5cnn(C6COC6)c5)c4)CC3)C2=O)C(=O)N1 (stereo not shown)")
"10 to 100 nM"

Taken from patent US20250215012A1.
